Target: T1, glucose-dependent insulinotropic peptide (gastric inhibitory polypeptide) receptor (human, UniProt P48546 22-466)
T1 sequence (looked up): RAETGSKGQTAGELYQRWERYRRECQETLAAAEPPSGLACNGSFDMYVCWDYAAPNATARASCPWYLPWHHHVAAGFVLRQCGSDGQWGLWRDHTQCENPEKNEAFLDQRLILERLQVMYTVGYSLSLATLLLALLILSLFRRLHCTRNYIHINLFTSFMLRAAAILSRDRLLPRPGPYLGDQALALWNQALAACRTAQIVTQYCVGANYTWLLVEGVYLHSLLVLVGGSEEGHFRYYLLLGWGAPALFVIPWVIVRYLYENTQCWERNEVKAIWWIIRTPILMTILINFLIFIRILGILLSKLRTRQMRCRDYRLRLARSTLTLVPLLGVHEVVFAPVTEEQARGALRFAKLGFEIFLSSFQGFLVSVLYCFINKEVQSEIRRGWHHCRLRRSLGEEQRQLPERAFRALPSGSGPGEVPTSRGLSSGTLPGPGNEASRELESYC
Assay: cell-based or functional assay
Non-standard residues stand in square brackets, D forms with d. Groups on a side chain read outwards from the residue. Primed or numbered codes have the meaning given here. No end group written: not given here. *: point of attachment. Stearoyl = CCCCCCCCCCCCCCCCCC(=O)*; αMeF = C[C@](N)(Cc1ccccc1)C(=O)O; αMeS = C[C@](N)(CO)C(=O)O; PEG2′ = not defined here; Aib = CC(C)(N)C(=O)O
Catalogue of binders with associated Primary assay EC50 (cAMP), n2
Expressed in nM, but write only the number.

| BINDER | Primary assay EC50 (cAMP), n2, nM |
| --- | --- |
| HXEGTFTSDVSSYLEGQAAKEFIAWLVKGR (Aib 2; α-MeSer 8; C-terminal amide) [SEQ ID NO 19] | 130 |
| H[Aib]EGS[αMeF]TSDVSK([PEG2′-PEG2′-PEG2′-Stearoyl])YLEGEAA[Aib]E[αMeF]IA[αMeF]VVEGG-NH2 [SEQ ID NO 63] | 25.7 |

Exam item: Which Primary assay EC50 (cAMP), n2 is reported for this binder? H[Aib]EGS[αMeF]TSDV[αMeS]S[αMeF]LEGEAAK([PEG2′-PEG2′-PEG2′-Stearoyl])E[αMeF]IA[αMeF]VVKGG-NH2 [SEQ ID NO 56]
Marked response: 26

Exam item: Give the measured Primary assay EC50 (cAMP), n2 of HXEGTFTXDVSSYLEGQAAKEFIAWLVKGR (Aib 2; Aib 8; C-terminal amide) [SEQ ID NO 20] .
Marked response: 290
